B1: LINE1-full (parent)
chain: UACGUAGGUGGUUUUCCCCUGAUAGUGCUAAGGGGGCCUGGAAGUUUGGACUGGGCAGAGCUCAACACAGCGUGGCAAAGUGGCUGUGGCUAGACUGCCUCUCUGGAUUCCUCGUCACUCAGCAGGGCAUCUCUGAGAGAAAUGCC

Variants of: B1
protocol-notes: self-cleavage, relative activity (ratio to wild type); higher = more cleavage; in vitro, sequencing; the parent is a self-cleaving ribozyme
readout-name: self-cleavage

Exercise: Field request: self-cleavage | item: U26C U46G
Key: 1.62

Exercise: Same question, A6G A64U this time
Key: 0.87

Exercise: Same question, U45A C99U this time
Key: 0.59

Exercise: Same question, A69U G72A this time
Key: 0.04

Exercise: Same question, G10A A50U this time
Key: 1.32

Exercise: Same question, A59G A65U this time
Key: 0.08

Exercise: Same question, U47A C84U this time
Key: 0.09

Exercise: Same question, G25A G105A this time
Key: 1.27

Exercise: Same question, A69U A78G this time
Key: 0.04

Exercise: Same question, U14C U47C this time
Key: 1.56

Exercise: Same question, G8U U15C this time
Key: 1.62

Exercise: Same question, U46G A129G this time
Key: 1.93

Exercise: Same question, C3U U132C this time
Key: 1.1

Exercise: Same question, A30G A43U this time
Key: 1.5

Exercise: Same question, U62C G70A this time
Key: 0.01

Exercise: Same question, U52A C110A this time
Key: 1.66

Exercise: Same question, A78G U85G this time
Key: 0.18

Exercise: Same question, U14C A79U this time
Key: 1.97

Exercise: Same question, G41A C68U this time
Key: 0.23
